# anti-target count values compiled below
Test system: pPAFAH
test.summary: competitive ABPP of pPAFAH versus proteome hydrolases – biochemical, gel-based, FP-Rh fluorescence, complex proteome, SAR compounds, selectivity assay for pPAFAH inhibitor project, SAR follow-up (AID 588774)
run.parameters: anti-targets inhibited, at 10 µM

| structure.smiles.string | tested.on | anti-target count |
| --- | --- | --- |
| Cc1cc(N2CCN(C(=O)n3ncc(-c4ccc(OC(F)(F)F)cc4)n3)CC2)c2ccccc2n1 | pPAFAH | 9 |
| O=C(Oc1noc2cc(Cl)ccc12)N1CCOCC1 | pPAFAH | 3 |
| Cc1cc(N2CCN(C(=O)Oc3ccc([N+](=O)[O-])cc3)CC2)c2ccccc2n1 | pPAFAH | 2 |
| Cc1cc(N2CCN(C(=O)Oc3ccc(C4CCCC4)cc3)CC2)c2ccccc2n1 | pPAFAH | 0 |
| Cc1cc(N2CCN(C(=O)n3ncc(-c4ccc(Cl)c(Cl)c4)n3)CC2)c2ccccc2n1 | pPAFAH | 8 |
| Cc1cc(N2CCN(C(=O)Oc3ccc(-c4ccc(Br)cc4)cc3)CC2)c2ccccc2n1 | pPAFAH | 0 |
| Cc1cc(N2CCN(C(=O)Oc3ccc(-n4cccc4)cc3)CC2)c2ccccc2n1 | pPAFAH | 0 |
| Cc1cc(N2CCN(C(=O)Oc3ccc(C(F)(F)F)cc3)CC2)c2ccccc2n1 | pPAFAH | 1 |
| Cc1cc(N2CCN(C(=O)Oc3noc4cc(Cl)ccc34)CC2)c2ccccc2n1 | pPAFAH | 4 |
| Cc1cc(N2CCN(C(=O)n3ncc(-c4ccccc4)n3)CC2)c2ccccc2n1 | pPAFAH | 9 |
| COc1ccc(-c2cnn(C(=O)N3CCN(c4cc(C)nc5ccccc45)CC3)n2)cc1 | pPAFAH | 8 |
| Cc1cc(N2CCN(C(=O)n3oc4cc(Cl)ccc4c3=O)CC2)c2ccccc2n1 | pPAFAH | 3 |

###

tested.on: Monoglyceride lipase (Mus musculus)
test.summary: competitive ABPP of pPAFAH versus proteome hydrolases – biochemical, gel-based, FP-Rh fluorescence, complex proteome, SAR compounds, selectivity assay for pPAFAH inhibitor project, SAR follow-up (AID 588774);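 for inhibition: 0% = DMSO-only band intensity and 100% = blank gel background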
run.parameters: MAGL, inhibition, at 0.1 µM, stronger effect = higher value

| structure.smiles.string | display.unit | inhibition |
| --- | --- | --- |
| O=C(N1CCOCC1)n1oc2cc(Cl)ccc2c1=O | % | 36 |
| Cc1cc(N2CCN(C(=O)Oc3noc4cc(Cl)ccc34)CC2)c2ccccc2n1 | % | 79 |
| Cc1cc(N2CCN(C(=O)n3ncc(-c4ccc([N+](=O)[O-])cc4)n3)CC2)c2ccccc2n1 | % | 28 |
| Cc1cc(N2CCN(C(=O)Oc3ccc([N+](=O)[O-])cc3)CC2)c2ccccc2n1 | % | 23 |
| Cc1cc(N2CCN(C(=O)n3oc4cc(Cl)ccc4c3=O)CC2)c2ccccc2n1 | % | 54 |

###

tested.on: UniProt:O35678
Sequence (O35678 whole entry, looked up): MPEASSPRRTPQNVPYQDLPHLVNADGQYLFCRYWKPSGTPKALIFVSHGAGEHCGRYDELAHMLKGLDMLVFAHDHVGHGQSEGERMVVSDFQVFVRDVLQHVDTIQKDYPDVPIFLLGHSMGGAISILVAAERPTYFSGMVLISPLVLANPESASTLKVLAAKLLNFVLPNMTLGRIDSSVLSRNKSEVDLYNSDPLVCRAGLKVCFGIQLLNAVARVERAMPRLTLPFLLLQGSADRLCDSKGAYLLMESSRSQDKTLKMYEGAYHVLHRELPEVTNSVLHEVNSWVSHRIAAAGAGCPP
test.summary: competitive ABPP of pPAFAH versus proteome hydrolases – biochemical, gel-based, FP-Rh fluorescence, complex proteome, SAR compounds, selectivity assay for pPAFAH inhibitor project, SAR follow-up (AID 588774);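 for inhibition: 0% = DMSO-only band intensity and 100% = blank gel background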
run.parameters: MAGL, inhibition, at 1 µM, stronger effect = higher value

| structure.smiles.string | tested.on | inhibition [%] |
| --- | --- | --- |
| COc1ccc(-c2cnn(C(=O)N3CCN(c4cc(C)nc5ccccc45)CC3)n2)cc1 | UniProt:O35678 | 35 |
| Cc1cc(N2CCN(C(=O)n3oc4cc(Cl)ccc4c3=O)CC2)c2ccccc2n1 | UniProt:O35678 | 73 |
| Cc1cc(N2CCN(C(=O)n3ncc(-c4ccccc4)n3)CC2)c2ccccc2n1 | UniProt:O35678 | 36 |
| Cc1cc(N2CCN(C(=O)Oc3ccc([N+](=O)[O-])cc3)CC2)c2ccccc2n1 | UniProt:O35678 | 51 |
| Cc1cc(N2CCN(C(=O)n3ncc(-c4ccc([N+](=O)[O-])cc4)n3)CC2)c2ccccc2n1 | UniProt:O35678 | 68 |
| Cc1cc(N2CCN(C(=O)Oc3noc4cc(Cl)ccc34)CC2)c2ccccc2n1 | UniProt:O35678 | 83 |
| O=C(Oc1noc2cc(Cl)ccc12)N1CCCCC1 | UniProt:O35678 | 13 |
| Cc1cc(N2CCN(C(=O)n3ncc(-c4ccc(OC(F)(F)F)cc4)n3)CC2)c2ccccc2n1 | UniProt:O35678 | 35 |
| Cc1cc(N2CCN(C(=O)n3ncc(-c4ccc(Cl)c(Cl)c4)n3)CC2)c2ccccc2n1 | UniProt:O35678 | 26 |
| O=C(N1CCOCC1)n1oc2cc(Cl)ccc2c1=O | UniProt:O35678 | 53 |

###

# inhibition values compiled below
tested.on: ABHD4 (UniProt Q8VD66)
Sequence (Q8VD66 whole entry, looked up): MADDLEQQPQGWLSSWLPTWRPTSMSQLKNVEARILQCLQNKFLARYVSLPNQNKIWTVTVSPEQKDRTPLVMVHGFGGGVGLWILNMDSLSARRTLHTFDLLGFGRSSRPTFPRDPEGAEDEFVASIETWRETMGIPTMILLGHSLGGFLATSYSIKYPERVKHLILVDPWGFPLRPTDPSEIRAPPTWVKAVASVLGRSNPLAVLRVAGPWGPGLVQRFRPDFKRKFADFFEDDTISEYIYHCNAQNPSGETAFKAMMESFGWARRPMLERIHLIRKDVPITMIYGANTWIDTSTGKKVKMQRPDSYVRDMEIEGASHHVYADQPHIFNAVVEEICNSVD
test.summary: competitive ABPP of pPAFAH versus proteome hydrolases – biochemical, gel-based, FP-Rh fluorescence, complex proteome, SAR compounds, selectivity assay for pPAFAH inhibitor project, SAR follow-up (AID 588774);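 for inhibition: 0% = DMSO-only band intensity and 100% = blank gel background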
run.parameters: inhibition, at 1 µM, stronger effect = higher value

| structure.smiles.string | inhibition (%) |
| --- | --- |
| Cc1cc(N2CCN(C(=O)n3ncc(-c4ccc([N+](=O)[O-])cc4)n3)CC2)c2ccccc2n1 | 94 |
| Cc1cc(N2CCN(C(=O)n3ncc(-c4ccccc4)n3)CC2)c2ccccc2n1 | 85 |
| COc1ccc(-c2cnn(C(=O)N3CCN(c4cc(C)nc5ccccc45)CC3)n2)cc1 | 86 |
| Cc1cc(N2CCN(C(=O)n3oc4cc(Cl)ccc4c3=O)CC2)c2ccccc2n1 | 38 |
| Cc1cc(N2CCN(C(=O)n3ncc(-c4ccc(Cl)c(Cl)c4)n3)CC2)c2ccccc2n1 | 96 |
| Cc1cc(N2CCN(C(=O)n3ncc(-c4ccc(OC(F)(F)F)cc4)n3)CC2)c2ccccc2n1 | 92 |
| Cc1cc(N2CCN(C(=O)Oc3ccc(C(F)(F)F)cc3)CC2)c2ccccc2n1 | 39 |

###

Tested on: LYPLA1
test.summary: competitive ABPP of pPAFAH versus proteome hydrolases – biochemical, gel-based, FP-Rh fluorescence, complex proteome, SAR compounds, selectivity assay for pPAFAH inhibitor project, SAR follow-up (AID 588774);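 for inhibition: 0% = DMSO-only band intensity and 100% = blank gel background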
run.parameters: inhibition, at 0.1 µM, stronger effect = higher value
# inhibition values compiled below
endpoint.name: inhibition (%)

| structure.smiles.string | recorded.value |
| --- | --- |
| Cc1cc(N2CCN(C(=O)n3ncc(-c4ccc([N+](=O)[O-])cc4)n3)CC2)c2ccccc2n1 | 5 |
| Cc1cc(N2CCN(C(=O)Oc3noc4cc(Cl)ccc34)CC2)c2ccccc2n1 | 20 |
| O=C(N1CCOCC1)n1oc2cc(Cl)ccc2c1=O | 17 |
| COc1ccc(-c2cnn(C(=O)N3CCN(c4cc(C)nc5ccccc45)CC3)n2)cc1 | 4 |

###

# inhibition values compiled below
Test system: ABHD6
test.summary: competitive ABPP of pPAFAH versus proteome hydrolases – biochemical, gel-based, FP-Rh fluorescence, complex proteome, SAR compounds, selectivity assay for pPAFAH inhibitor project, SAR follow-up (AID 588774);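 for inhibition: 0% = DMSO-only band intensity and 100% = blank gel background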
run.parameters: at 10 µM, stronger effect = higher value
Active and inactive are the calls of the source.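 The calls were made as follows: active = target enzyme inhibited at least 50% at a set dose, and selective over every off-target enzyme by a set factor; inactive = weaker inhibition or too little selectivity.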

| structure.smiles.string | tested.on | inhibition |
| --- | --- | --- |
| Cc1cc(N2CCN(C(=O)Oc3ccc(-c4ccc(Br)cc4)cc3)CC2)c2ccccc2n1 | ABHD6 | 0% (inactive) |
| Cc1cc(N2CCN(C(=O)Oc3ccc(-n4cccc4)cc3)CC2)c2ccccc2n1 | ABHD6 | 0% (inactive) |
| COc1ccc(-c2cnn(C(=O)N3CCN(c4cc(C)nc5ccccc45)CC3)n2)cc1 | ABHD6 | 70% (inactive) |
| O=C(Oc1noc2cc(Cl)ccc12)N1CCCCC1 | ABHD6 | 46% (inactive) |
| Cc1cc(N2CCN(C(=O)n3ncc(-c4ccccc4)n3)CC2)c2ccccc2n1 | ABHD6 | 71% (inactive) |
| Cc1cc(N2CCN(C(=O)n3ncc(-c4ccc(OC(F)(F)F)cc4)n3)CC2)c2ccccc2n1 | ABHD6 | 74% (inactive) |
| Cc1cc(N2CCN(C(=O)n3ncc(-c4ccc(Cl)c(Cl)c4)n3)CC2)c2ccccc2n1 | ABHD6 | 61% (inactive) |
| Cc1cc(N2CCN(C(=O)Oc3ccc(C4CCCC4)cc3)CC2)c2ccccc2n1 | ABHD6 | 0% (inactive) |
| Cc1cc(N2CCN(C(=O)Oc3ccc(C4CCCCC4)cc3)CC2)c2ccccc2n1 | ABHD6 | 0% (inactive) |
| O=C(Oc1noc2cc(Cl)ccc12)N1CCOCC1 | ABHD6 | 66% (inactive) |

###

# inhibition values compiled below
tested.on: Platelet-activating factor acetylhydrolase (Mus musculus) (UniProt Q60963)
Sequence (Q60963 whole entry, looked up): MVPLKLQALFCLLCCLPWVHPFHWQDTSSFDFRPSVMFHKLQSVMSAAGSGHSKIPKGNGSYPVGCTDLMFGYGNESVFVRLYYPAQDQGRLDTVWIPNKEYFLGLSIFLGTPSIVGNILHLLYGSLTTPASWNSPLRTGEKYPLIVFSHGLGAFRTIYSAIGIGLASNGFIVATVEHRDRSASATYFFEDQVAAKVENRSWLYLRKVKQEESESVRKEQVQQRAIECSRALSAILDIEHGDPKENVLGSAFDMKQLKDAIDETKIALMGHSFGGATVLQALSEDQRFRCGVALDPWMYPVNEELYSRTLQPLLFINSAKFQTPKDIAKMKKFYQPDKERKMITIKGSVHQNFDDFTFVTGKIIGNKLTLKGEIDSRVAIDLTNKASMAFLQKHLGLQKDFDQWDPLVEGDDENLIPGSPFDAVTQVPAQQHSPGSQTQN
test.summary: competitive ABPP of pPAFAH versus proteome hydrolases – biochemical, gel-based, FP-Rh fluorescence, complex proteome, SAR compounds, selectivity assay for pPAFAH inhibitor project, SAR follow-up (AID 588774);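 for inhibition: 0% = DMSO-only band intensity and 100% = blank gel background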
run.parameters: pPAFAH, inhibition, at 1 µM, stronger effect = higher value

| structure.smiles.string | inhibition, % |
| --- | --- |
| Cc1cc(N2CCN(C(=O)Oc3ccc(-c4ccc(Br)cc4)cc3)CC2)c2ccccc2n1 | 37 |
| Cc1cc(N2CCN(C(=O)Oc3ccc(C4CCCCC4)cc3)CC2)c2ccccc2n1 | 63 |
| Cc1cc(N2CCN(C(=O)n3ncc(-c4ccc([N+](=O)[O-])cc4)n3)CC2)c2ccccc2n1 | 99 |
| COc1ccc(-c2cnn(C(=O)N3CCN(c4cc(C)nc5ccccc45)CC3)n2)cc1 | 88 |
| O=C(N1CCOCC1)n1oc2cc(Cl)ccc2c1=O | 98 |
